Source of measurements: paper PMC9814400

- experimental target: p97-ND1 (Homo sapiens, UniProt P55072)
- Construct: His6 (TEV protease-cleavable) (N); made in house
- Sequence (P55072 2-481): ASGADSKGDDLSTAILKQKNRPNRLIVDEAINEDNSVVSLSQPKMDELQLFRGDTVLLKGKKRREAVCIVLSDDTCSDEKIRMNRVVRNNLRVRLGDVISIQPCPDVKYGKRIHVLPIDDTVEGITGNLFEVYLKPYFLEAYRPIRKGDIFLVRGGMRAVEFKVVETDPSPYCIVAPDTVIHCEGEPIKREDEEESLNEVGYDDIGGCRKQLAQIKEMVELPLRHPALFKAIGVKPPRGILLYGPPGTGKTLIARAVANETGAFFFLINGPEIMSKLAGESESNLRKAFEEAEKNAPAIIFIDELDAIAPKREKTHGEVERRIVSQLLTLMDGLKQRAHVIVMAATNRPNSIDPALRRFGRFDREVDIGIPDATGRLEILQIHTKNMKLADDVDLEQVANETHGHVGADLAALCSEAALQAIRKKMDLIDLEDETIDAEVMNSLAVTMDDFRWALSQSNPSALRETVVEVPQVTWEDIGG
- experiment: BLI dose-response binding to the p97-ND1 construct
- test context: BLI steady state, 1:1 Langmuir model; errors from the fitting model; read-out: KD p97-ND1
Each entry below carries its recorded Kd.
Give the quantity in µM, number only.

Consider the reported Kd for these compounds:
# compound, Kd (µM)
rows = [
    ("Nc1nc2c(s1)CN(Cc1ccccc1)CC2 [VIK20]", 192),
    ("O=C(O)Cc1cc2ccccc2[nH]1 [TROLL6]", 243),
    ("Cc1ccc(-c2csc3nc(CO)cn23)cc1 [TROLL14]", 290),
    ("Nc1[nH]ncc1-c1ccc(Cl)cc1 [TROLL18]", 445),
    ("Cc1ccc(-c2cc(N)n[nH]2)o1 [TROLL8]", 598),
]

Please look at the following compound next.
I have this compound here, NCC(O)c1ccc(Br)cc1 (stereo not drawn) [TROLL2] , and I need its recorded Kd.
321

---

- experimental target: p97-N (Homo sapiens, UniProt P55072)
- Construct: Constructs of p97-N (aa 21-199, N-terminal 3 C protease-cleavable His6-tag); His6 (3C protease-cleavable) (N); made in house
- experiment: BLI dose-response binding to the isolated N-domain of p97
- test context: ligand efficiency based on KD for p97-N
- Protocol: The selected 42 fragments of the screen with the N-domain were tested in a dose-dependent manner using concentrations from 1000.0 µM to 31.3 µM in 1:1 dilution steps. […] Based on these analyses, a ScoreBLI was calculated (for details see Supplementary Methods in the Supporting Information). The calculated ScoreBLI should be close to or above 1.0 for ligands that can be described with a 1:1 model, whereas ligands showing unspecific binding yield values << 1.0. […]
LE strictly less than 0.4 = Fulfilled. Otherwise Not fulfilled.

// below: answered molecules
# molecule, group
records = [
    ("Cc1ccc(-c2csc3nc(CO)cn23)cc1 [TROLL14]", "Fulfilled"),
    ("NCC(O)c1ccc(Cl)cc1 (centres unmarked) [TROLL7]", "Not fulfilled"),
    ("Nc1[nH]ncc1-c1ccc(Cl)cc1 [TROLL18]", "Fulfilled"),
    ("Cc1oc(CN)nc1-c1ccccc1 [TROLL12]", "Fulfilled"),
    ("NCC(O)c1ccc(Br)cc1 (centres unmarked) [TROLL2]", "Not fulfilled"),
]

Next, consider the following molecule.
Criterion: LE strictly below 0.4. Is it met by Nc1nc2c(s1)CN(Cc1ccccc1)CC2 [VIK20] ?
Fulfilled

---

- experimental target: p97-ND1 (Homo sapiens)
- Construct: His6 (TEV protease-cleavable) (N); made in house
- experiment: BLI dose-response binding to the p97-ND1 construct
- test context: global exponential regression, 1:1 binding model; read-out: affinity of ADP to p97-ND1 (kinetic analysis)
experimental endpoint: pKd
Worth noting: pKd values are minus log10 of concentrations stated in mol/L.

I have this molecule here, Nc1ncnc2c1ncn2[C@@H]1O[C@H](COP(=O)(O)OP(=O)(O)O)[C@@H](O)[C@H]1O [ADP, adenosine diphosphate, reference compound] , and I need its recorded pKd.
6.62

---

- experimental target: p97-N (Homo sapiens, UniProt P55072)
- Construct: Constructs of p97-N (aa 21-199, N-terminal 3 C protease-cleavable His6-tag); His6 (3C protease-cleavable) (N); made in house
- experiment: BLI dose-response binding to the isolated N-domain of p97
- test context: based on sensorgrams from measurements with p97-N; about 1.0 or above = 1:1 binder
experimental endpoint: ScoreBLI
When you answer, write just the number.

Consider the reported ScoreBLI for these compounds:
# compound, ScoreBLI
measured = [
    ("Nc1[nH]ncc1-c1ccc(Cl)cc1 [TROLL18]", 0.89),
    ("NCC(O)c1ccc(Cl)cc1 (stereo not drawn) [TROLL7]", 0.91),
]

I have this compound here, Cc1ccc(-c2cc(N)n[nH]2)o1 [TROLL8] , and I need its recorded ScoreBLI.
0.91
